Data provenance: ChEMBL document CHEMBL1134061

Biological target: 3-hydroxy-3-methylglutaryl-coenzyme A reductase (Homo sapiens) (UniProt P04035)
Sequence (P04035 whole entry): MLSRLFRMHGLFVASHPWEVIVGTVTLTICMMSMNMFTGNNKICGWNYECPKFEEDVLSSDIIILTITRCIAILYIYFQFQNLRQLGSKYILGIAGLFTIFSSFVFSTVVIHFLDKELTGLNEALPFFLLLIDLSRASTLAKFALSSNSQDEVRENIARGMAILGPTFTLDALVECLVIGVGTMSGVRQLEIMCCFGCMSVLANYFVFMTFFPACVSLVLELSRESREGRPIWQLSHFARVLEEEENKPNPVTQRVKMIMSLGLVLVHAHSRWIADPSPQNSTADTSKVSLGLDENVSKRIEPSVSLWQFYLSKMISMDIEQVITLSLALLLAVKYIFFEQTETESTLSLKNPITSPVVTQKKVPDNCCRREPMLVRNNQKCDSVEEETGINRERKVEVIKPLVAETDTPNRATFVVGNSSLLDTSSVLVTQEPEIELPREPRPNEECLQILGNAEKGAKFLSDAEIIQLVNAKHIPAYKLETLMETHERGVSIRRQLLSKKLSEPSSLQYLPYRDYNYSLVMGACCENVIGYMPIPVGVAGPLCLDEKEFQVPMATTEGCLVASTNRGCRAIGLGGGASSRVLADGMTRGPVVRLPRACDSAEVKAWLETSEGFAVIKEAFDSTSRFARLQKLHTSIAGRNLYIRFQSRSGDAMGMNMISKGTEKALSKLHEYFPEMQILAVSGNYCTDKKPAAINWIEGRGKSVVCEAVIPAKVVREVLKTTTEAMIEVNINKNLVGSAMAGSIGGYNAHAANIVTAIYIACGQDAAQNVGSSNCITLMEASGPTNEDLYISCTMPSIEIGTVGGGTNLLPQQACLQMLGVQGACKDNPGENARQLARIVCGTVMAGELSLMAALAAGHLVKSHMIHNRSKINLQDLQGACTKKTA
Assay: In vitro HMG-CoA reductase inhibitory activity required to inhibit cellular steroidgenesis in Hep G2 cells (human hepatoma cell line) with pravastatin as reference compound
Assay type: cell-based
Settings: HepG2
Quick reference: Relative potency of the listed items.

SMILES STRING: Cc1nn(-c2ccccc2)c2nc(C(C)C)c(/C=C/[C@@H](O)C[C@@H](O)CC(=O)O)c(-c3ccc(F)cc3)c12
Relative potency: 1
--
SMILES STRING: Cc1cc2c(-c3ccc(F)cc3)c(/C=C/[C@@H](O)C[C@@H](O)CC(=O)O)c(C(C)C)nc2s1
Relative potency: 22
--
SMILES STRING: CC(C)c1nc2c(c(C3CC3)nn2-c2ccccc2)c(-c2ccc(F)cc2)c1/C=C/[C@@H](O)C[C@@H](O)CC(=O)O
Relative potency: 7
--
SMILES STRING: Cn1nc(-c2ccccc2)c2c(-c3ccc(F)cc3)c(/C=C/[C@@H](O)C[C@@H](O)CC(=O)O)c(C3CC3)nc21
Relative potency: 14

* * *

Quick reference: Relative potency of the listed items.
Molecular target: 3-hydroxy-3-methylglutaryl-coenzyme A reductase (Rattus norvegicus)
Experiment: In vitro rat HMG-CoA reductase inhibitory activity required to inhibit sterol synthesis in cell free system with pravastatin as reference compound

SMILES STRING: Cc1cc2c(-c3ccc(F)cc3)c(/C=C/[C@@H](O)C[C@@H](O)CC(=O)O)c(C(C)C)nc2s1
MODIFIER SIGN: =
Relative potency: 68
--
SMILES STRING: CC(C)c1nc2sc(-c3ccccc3)cc2c(-c2ccc(F)cc2)c1/C=C/[C@@H](O)C[C@@H](O)CC(=O)O
MODIFIER SIGN: <
Relative potency: 1
--
SMILES STRING: CC(C)c1nc2c(c(-c3ccccc3)nn2C)c(-c2ccc(F)cc2)c1/C=C/[C@@H](O)C[C@@H](O)CC(=O)O
MODIFIER SIGN: =
Relative potency: 21
--
SMILES STRING: CC(C)c1nc2cc(C(C)(C)C)nn2c(-c2ccc(F)cc2)c1/C=C/[C@@H](O)C[C@@H](O)CC(=O)O
MODIFIER SIGN: =
Relative potency: 4

* * *

Target: UniProt P51639
Assay: In vitro rat HMG-CoA reductase inhibitory activity required to inhibit sterol synthesis in cell free system with pravastatin as reference compound
RESULT TYPE: Relative potency

SMILES STRING: CCc1c(C)sc2nc(C3CC3)c(/C=C/[C@@H](O)C[C@@H](O)CC(=O)O)c(-c3ccc(F)cc3)c12
MEASURED NUMBER: 65
//
SMILES STRING: CC(C)c1nc2cc(-c3ccccc3)nn2c(-c2ccc(F)cc2)c1/C=C/[C@@H](O)C[C@@H](O)CC(=O)O
MEASURED NUMBER: 12
//
SMILES STRING: COc1ccc(-n2nc(C)c3c(-c4ccc(F)cc4)c(/C=C/[C@@H](O)C[C@@H](O)CC(=O)O)c(C(C)C)nc32)cc1
MEASURED NUMBER: 154
//
SMILES STRING: CC(C)(C)n1nc(-c2ccccc2)c2c(-c3ccc(F)cc3)c(/C=C/[C@@H](O)C[C@@H](O)CC(=O)O)c(C3CC3)nc21
MEASURED NUMBER: 75

* * *

Quick reference: Relative potency of the listed items.
Molecular target: 3-hydroxy-3-methylglutaryl-coenzyme A reductase (Rattus norvegicus) (UniProt P51639)
Sequence (P51639 whole entry): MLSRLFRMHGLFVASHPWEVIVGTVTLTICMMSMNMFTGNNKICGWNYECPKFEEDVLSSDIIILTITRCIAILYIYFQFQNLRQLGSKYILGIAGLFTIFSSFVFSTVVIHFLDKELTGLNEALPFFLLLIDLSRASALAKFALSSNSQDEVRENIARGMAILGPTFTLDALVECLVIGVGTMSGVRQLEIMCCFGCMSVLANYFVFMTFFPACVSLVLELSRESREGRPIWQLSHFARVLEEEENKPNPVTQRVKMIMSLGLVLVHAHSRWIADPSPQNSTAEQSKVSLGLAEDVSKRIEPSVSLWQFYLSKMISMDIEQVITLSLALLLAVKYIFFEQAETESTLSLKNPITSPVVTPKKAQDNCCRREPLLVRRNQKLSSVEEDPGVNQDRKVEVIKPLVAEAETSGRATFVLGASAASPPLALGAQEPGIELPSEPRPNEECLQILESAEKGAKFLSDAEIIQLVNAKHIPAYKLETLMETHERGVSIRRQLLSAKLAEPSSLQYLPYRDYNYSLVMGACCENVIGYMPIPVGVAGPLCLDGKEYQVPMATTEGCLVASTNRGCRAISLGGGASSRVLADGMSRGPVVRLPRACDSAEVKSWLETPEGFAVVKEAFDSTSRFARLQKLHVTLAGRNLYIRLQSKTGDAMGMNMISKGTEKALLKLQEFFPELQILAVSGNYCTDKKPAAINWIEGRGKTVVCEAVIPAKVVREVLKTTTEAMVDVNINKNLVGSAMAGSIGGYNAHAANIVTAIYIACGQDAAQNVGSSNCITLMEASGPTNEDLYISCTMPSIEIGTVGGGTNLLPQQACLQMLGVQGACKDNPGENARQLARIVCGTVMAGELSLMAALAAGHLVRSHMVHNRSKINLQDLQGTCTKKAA
Assay: In vitro rat HMG-CoA reductase inhibitory activity required to inhibit sterol synthesis in cell free system with pravastatin as reference compound

SMILES STRING: O=C(O)C[C@H](O)C[C@H](O)/C=C/c1c(C2CC2)nc2sc3c(c2c1-c1ccc(F)cc1)CCCCC3
Relative potency: 23

SMILES STRING: Cc1cc2nc(C(C)C)c(/C=C/[C@@H](O)C[C@@H](O)CC(=O)O)c(-c3ccc(F)cc3)n2n1
Relative potency: 27

SMILES STRING: CCn1ncc2c(-c3ccc(F)cc3)c(/C=C/[C@@H](O)C[C@@H](O)CC(=O)O)c(C(C)C)nc21
Relative potency: 71

SMILES STRING: CC(C)c1nc2cc(-c3ccco3)nn2c(-c2ccc(F)cc2)c1/C=C/[C@@H](O)C[C@@H](O)CC(=O)O
Relative potency: 13

SMILES STRING: Cc1noc2nc(C(C)C)c(/C=C/[C@@H](O)C[C@@H](O)CC(=O)O)c(-c3ccc(F)cc3)c12
Relative potency: 170

SMILES STRING: O=C(O)C[C@H](O)C[C@H](O)/C=C/c1c(C2CC2)nc2sccc2c1-c1ccc(F)cc1
Relative potency: 229

SMILES STRING: Cn1nc(-c2ccccc2)c2c(-c3ccc(F)cc3)c(/C=C/[C@@H](O)C[C@@H](O)CC(=O)O)c(C3CC3)nc21
Relative potency: 300

SMILES STRING: CC(C)c1cc2nc(C3CC3)c(/C=C/[C@@H](O)C[C@@H](O)CC(=O)O)c(-c3ccc(F)cc3)n2n1
Relative potency: 6
